Listing: Plant response rating, Galium of selected compounds
tested on: galium (catchweed bedstraw, Galium aparine); assay: Test A postemergence, galium; assay type: in vivo; details: 500 g ai/ha, 0 to 100 scale
I'd appreciate a reply containing only the number, no unit.

[
  {
    "compound": "O=C1NCC(/C=C/c2ccccc2)C1C(=O)Nc1ccccc1F (stereo not drawn) [Compound 32]",
    "Plant response rating, Galium": 0
  },
  {
    "compound": "O=C1NCC(Cc2ccc(F)c(F)c2)C1C(=O)Nc1cccc(F)c1F (stereo not drawn) [Compound 12]",
    "Plant response rating, Galium": 0
  }
]

Please find the next compound below.
Lab request: please report Plant response rating, Galium under test system galium (catchweed bedstraw, Galium aparine) for O=C1NCC(C#Cc2ccc(F)cc2)C1C(=O)Nc1cccc(F)c1F (stereo not drawn) [Compound 16] 0
